fraction of intact chelate listing for selected compounds.
protocol: Dissociation of chelates in aq. 0.1M HCl at RT (acid decomplexation kinetic inertness) (Chart 20)
Type: physicochemical
run_conditions: 1 month
recorded_endpoint: fraction of intact chelate (%)

>>> quantitative_result("O=C1C[N@@]2CC[N@]3CC[N@@](CC[N@](CC2)Cc2cccc(n2)-c2cnnn2Cc2cc(-c4ccccc4)cc(n2)C3)CC(=O)[O][Ho][O]1")
100
>>> quantitative_result("O=C1C[N@@]2CC[N@]3CC[N@@](CC[N@](CC2)Cc2cccc(n2)-c2cnnn2Cc2cc(-c4ccccc4)cc(n2)C3)CC(=O)[O][Tm][O]1")
100
>>> quantitative_result("O=C([O-])CN1CCN2CCN(CC(=O)[O-])CCN(CC1)Cc1cccc(n1)-c1cnnn1Cc1cc(-c3ccccc3)cc(n1)C2.[Zn+2]")
5

* * *

protocol: Dissociation of chelates in aq. 1.0M HCl at 80° C. (acid decomplexation kinetic inertness) (Chart 18)
Assay type: physicochemical
run_conditions: 1 week
fraction of intact chelate listing for selected molecules.
recorded_endpoint: fraction of intact chelate (%)

>>> quantitative_result("O=C1C[N@@]2CC[N@]3CC[N@@](CC[N@](CC2)Cc2cccc(n2)-c2cnnn2Cc2cc(-c4ccccc4)cc(n2)C3)CC(=O)[O][Tm][O]1")
100
>>> quantitative_result("O=C([O-])CN1CCN2CCN(CC(=O)[O-])CCN(CC1)Cc1cccc(n1)-c1cnnn1Cc1cc(-c3ccccc3)cc(n1)C2.[Zn+2]")
0
>>> quantitative_result("O=C1C[N@@]2CC[N@]3CC[N@@](CC[N@](CC2)Cc2cccc(n2)-c2cnnn2Cc2cc(-c4ccccc4)cc(n2)C3)CC(=O)[O][Ho][O]1")
99
>>> quantitative_result("O=C1C[N@@]2CC[N@]3CC[N@@](CC[N@](CC2)Cc2cccc(n2)-c2cnnn2Cc2cc(-c4ccccc4)cc(n2)C3)CC(=O)[O][Tb][O]1")
78
>>> quantitative_result("O=C1C[N@@]2CC[N@]3CC[N@@](CC[N@](CC2)Cc2cccc(n2)-c2cnnn2Cc2cc(-c4ccccc4)cc(n2)C3)CC(=O)[O][Ce][O]1")
0
>>> quantitative_result("O=C1C[N@@]2CC[N@]3CC[N@@](CC[N@](CC2)Cc2cccc(n2)-c2cn(nn2)Cc2cc(-c4ccccc4)cc(n2)C3)CC(=O)[O][Lu][O]1")
0
>>> quantitative_result("O=C1C[N@@]2CC[N@]3CC[N@@](CC[N@](CC2)Cc2cccc(n2)-c2cnnn2Cc2cc(-c4ccccc4)cc(n2)C3)CC(=O)[O][Cd][O]1")
90
>>> quantitative_result("O=C1C[N@@]2CC[N@]3CC[N@@](CC[N@](CC2)Cc2cccc(n2)-c2cn(nn2)Cc2cc(-c4ccccc4)cc(n2)C3)CC(=O)[O][Cd][O]1")
0
>>> quantitative_result("O=C1C[N@@]2CC[N@]3CC[N@@](CC[N@](CC2)Cc2cccc(n2)-c2cnnn2Cc2cc(-c4ccccc4)cc(n2)C3)CC(=O)[O][Er][O]1")
100
>>> quantitative_result("O=C1C[N@@]2CC[N@]3CC[N@@](CC[N@](CC2)Cc2cccc(n2)-c2cnnn2Cc2cc(-c4ccccc4)cc(n2)C3)CC(=O)[O][Sm][O]1")
0
>>> quantitative_result("O=C1C[N@@]2CC[N@]3CC[N@@](CC[N@](CC2)Cc2cccc(n2)-c2cnnn2Cc2cc(-c4ccccc4)cc(n2)C3)CC(=O)[O][Eu][O]1")
0
>>> quantitative_result("O=C([O-])CN1CCN2CCN(CC(=O)[O-])CCN(CC1)Cc1cccc(n1)-c1cnnn1Cc1cc(-c3ccccc3)cc(n1)C2.[Ca+2]")
0

* * *

protocol: Formation of 1,5-cz-[Ln(Lig)] from Lig and Ln^III ions (metal dependent click-zip), MOPS/NaOH buffer pH 7.0, analytical HPLC (Charts 1, 2)
run_conditions: La^III; after 1 week at 80° C.; MOPS/NaOH buffer pH 7.0
conversion to 1,5-cz-[Ln(Lig)], La^III listing for selected compounds.
recorded_endpoint: conversion to 1,5-cz-[Ln(Lig)], La^III (%)

>>> quantitative_result("[N-]=[N+]=NCc1cccc(CN2CCN(CC(=O)O)CCN(Cc3cccc(C#Cc4ccccc4)n3)CCN(CC(=O)O)CC2)n1")
4
>>> quantitative_result("[N-]=[N+]=NCc1cccc(CN2CCN(CC(=O)O)CCN(Cc3cccc(C#CI)n3)CCN(CC(=O)O)CC2)n1")
0
>>> quantitative_result("C#Cc1cccc(CN2CCN(CC(=O)O)CCN(Cc3cc(N(C)C)cc(CN=[N+]=[N-])n3)CCN(CC(=O)O)CC2)n1")
73
>>> quantitative_result("CC(C)(N)C#Cc1cccc(CN2CCN(CC(=O)O)CCN(Cc3cc(-c4ccccc4)cc(CN=[N+]=[N-])n3)CCN(CC(=O)O)CC2)n1")
4
>>> quantitative_result("C#CCNC(=O)CN1CCN(CC(=O)O)CCN(Cc2cc(-c3ccccc3)cc(CN=[N+]=[N-])n2)CCN(CC(=O)O)CC1")
0
>>> quantitative_result("C#Cc1cccc(CN2CCN(CC(=O)O)CCN(Cc3cc(C(=O)OC)cc(CN=[N+]=[N-])n3)CCN(CC(=O)O)CC2)n1")
0
>>> quantitative_result("C#Cc1cccc(CN2CCN(CC(=O)O)CCN(Cc3cccc(CN=[N+]=[N-])n3)CCN(CC(=O)O)CC2)n1")
50
>>> quantitative_result("C#Cc1cccc(CN2CCN(CC(=O)O)CCN(Cc3cc(-c4ccccc4)cc(CN=[N+]=[N-])n3)CCN(CC(=O)O)CC2)n1")
49
>>> quantitative_result("C#Cc1cccc(CN2CCN(CC(N)=O)CCN(Cc3cc(-c4ccccc4)cc(CN=[N+]=[N-])n3)CCN(CC(N)=O)CC2)n1")
0
>>> quantitative_result("C#Cc1cccc(CN2CCN(CC(=O)NCC(=O)O)CCN(Cc3cc(-c4ccccc4)cc(CN=[N+]=[N-])n3)CCN(CC(=O)NCC(=O)O)CC2)n1")
0
>>> quantitative_result("[N-]=[N+]=NCc1cccc(CN2CCN(CC(=O)O)CCN(Cc3cccc(C#CC4CC4)n3)CCN(CC(=O)O)CC2)n1")
5

* * *

protocol: Formation of 1,5-cz-[Ln(Lig)] from Lig and Ln^III ions (metal dependent click-zip), MOPS/NaOH buffer pH 7.0, analytical HPLC (Charts 1, 2)
run_conditions: Eu^III; after 1 hour at 80° C.; MOPS/NaOH buffer pH 7.0
recorded_endpoint: conversion to 1,5-cz-[Ln(Lig)], Eu^III (%)

>>> quantitative_result("C#Cc1cccc(CN2CCN(CC(=O)O)CCN(Cc3cc(-c4ccccc4)cc(CN=[N+]=[N-])n3)CCN(CC(=O)O)CC2)n1")
4
>>> quantitative_result("C#CCNC(=O)CN1CCN(CC(=O)O)CCN(Cc2cc(-c3ccccc3)cc(CN=[N+]=[N-])n2)CCN(CC(=O)O)CC1")
0
>>> quantitative_result("C#Cc1cccc(CN2CCN(CC(=O)O)CCN(Cc3cc(N(C)C)cc(CN=[N+]=[N-])n3)CCN(CC(=O)O)CC2)n1")
6
>>> quantitative_result("C#Cc1cccc(CN2CCN(CC(=O)O)CCN(Cc3cccc(CN=[N+]=[N-])n3)CCN(CC(=O)O)CC2)n1")
4
>>> quantitative_result("C#Cc1cccc(CN2CCN(CCC(=O)O)CCN(Cc3cccc(CN=[N+]=[N-])n3)CCN(CCC(=O)O)CC2)n1")
0
>>> quantitative_result("C#Cc1cccc(CN2CCN(CC(N)=O)CCN(Cc3cc(-c4ccccc4)cc(CN=[N+]=[N-])n3)CCN(CC(N)=O)CC2)n1")
2
>>> quantitative_result("C#CCN(CC#C)CCN1CCN(CC(=O)O)CCN(Cc2cc(-c3ccccc3)cc(CN=[N+]=[N-])n2)CCN(CC(=O)O)CC1")
0
>>> quantitative_result("[N-]=[N+]=NCc1cccc(CN2CCN(CC(=O)O)CCN(Cc3cccc(C#CI)n3)CCN(CC(=O)O)CC2)n1")
1
>>> quantitative_result("[N-]=[N+]=NCc1cccc(CN2CCN(CC(=O)O)CCN(Cc3cccc(C#CC4CC4)n3)CCN(CC(=O)O)CC2)n1")
0
>>> quantitative_result("[N-]=[N+]=NCc1cccc(CN2CCN(CC(=O)O)CCN(Cc3cccc(C#CC4CCNCC4)n3)CCN(CC(=O)O)CC2)n1")
1
>>> quantitative_result("C#Cc1cccc(CN2CCN(CC(=O)O)CCN(Cc3cc(C(=O)OC(C)C)cc(CN=[N+]=[N-])n3)CCN(CC(=O)O)CC2)n1")
4
>>> quantitative_result("C#Cc1cccc(CN2CCN(CP(=O)(O)OCC)CCN(Cc3cccc(CN=[N+]=[N-])n3)CCN(CP(=O)(O)OCC)CC2)n1")
14
>>> quantitative_result("C#Cc1cccc(CN2CCN(CC(=O)O)CCN(Cc3cc(-c4ccc(C(=O)O)cc4)cc(CN=[N+]=[N-])n3)CCN(CC(=O)O)CC2)n1")
4
>>> quantitative_result("[N-]=[N+]=NCc1cc(-c2ccccc2)cc(CN2CCN(CC(=O)O)CCN(Cc3cccc(C#CCN)n3)CCN(CC(=O)O)CC2)n1")
1

The origin of these recorded values is patent US20250147039A1.
